System: ATP;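 also: ATP exposure 15 min at 22 °C before imaging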
PROCEDURE TEXT: switch fluorescence ratio, 500 uM ATP over buffer (Cy3 cluster intensity, sum of 5 cycles each) (fold (ratio)); higher = stronger signal-on switching upon ATP binding; sequences stand for … in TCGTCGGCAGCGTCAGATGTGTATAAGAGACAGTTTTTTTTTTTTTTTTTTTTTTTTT…TC
CONDITION INFO: aptamer strand: ATP DNA aptamer (quencher-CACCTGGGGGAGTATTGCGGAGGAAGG + anchor), 100 nM annealed; ATP concentration: 500 uM
For each entry below, report its switch fluorescence ratio value.
Lab note: jot down the number only; don't add units.

*Q* Give recorded switch fluorescence ratio with ATP for the following sequence: `AGCTTATGTC`
*A* 0.935

*Q* Recorded switch fluorescence ratio for `ACTGTTTGTC` with ATP, please?
*A* 0.99

*Q* Provide the documented switch fluorescence ratio with ATP as the system for `TATCTCAACG`
*A* 1.05
